- Measured on: UniProt P29804
- Sequence (P29804 30-389): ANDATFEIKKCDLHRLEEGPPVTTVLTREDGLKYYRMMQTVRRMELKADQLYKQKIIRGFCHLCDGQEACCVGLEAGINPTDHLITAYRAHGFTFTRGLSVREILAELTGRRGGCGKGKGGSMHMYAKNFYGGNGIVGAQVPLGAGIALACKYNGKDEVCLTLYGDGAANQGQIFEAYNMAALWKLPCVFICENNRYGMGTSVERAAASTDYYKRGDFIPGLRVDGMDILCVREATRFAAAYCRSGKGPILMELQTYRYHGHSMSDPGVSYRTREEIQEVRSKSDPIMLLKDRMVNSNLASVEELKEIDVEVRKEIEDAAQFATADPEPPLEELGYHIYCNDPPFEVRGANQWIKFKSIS
- Assay remarks: PDHc E1 inhibitory activity assay (DCPIP reduction)
- Assay type: biochemical
- Condition: [Compound] = 250 μM, [ThDP] = 50 μM
Listed next: entries and their corresponding Inhibition (%) PDHc E1.
Respond numerically; units are % and should not be typed.

Below: 3 compounds and their reported Inhibition (%) PDHc E1.
- Compound: "Cc1ncc(Cn2cc(CCC(=O)Nc3ccccc3N)nn2)c(N)n1 [Compound 26a]"
  Result: 75
- Compound: "Cc1ncc(Cn2cc(CCCCC(=O)Nc3ccccc3N)nn2)c(N)n1 [Compound 26c]"
  Result: 64
- Compound: "Cc1ncc(Cn2cc(CCCNS(=O)(=O)C(F)(F)F)nn2)c(N)n1 [Compound 18b]"
  Result: 55

**Query** Given the entry Cc1ncc(Cn2cc(CCCn3cc(-c4ccc(F)cc4)nn3)nn2)c(N)n1 [Compound 16b] , report its measured Inhibition (%) PDHc E1.
**Result** 66

**Query** COc1ccc(-c2cn(CCc3cn(Cc4cnc(C)nc4N)nn3)nn2)cc1 [Compound 17a] ?
**Result** 46

**Query** Cc1ncc(Cn2cc(CCNC(=O)c3cccc(-c4noc(C(F)(F)F)n4)c3)nn2)c(N)n1 [Compound 19a] ?
**Result** 48

**Query** Cc1ncc(Cn2cc(CCC(=O)NO)nn2)c(N)n1 [Compound 24a] ?
**Result** 77

**Query** Cc1ncc(Cn2cc(CCOC(=O)c3cccc(-c4noc(C(F)(F)F)n4)c3)nn2)c(N)n1 [Compound 13a] ?
**Result** 72
